System: Mycobacterium tuberculosis
Experiment: Cornell M. t heat shock assay; further: in the data most compounds retested in dose-response had high values
Format: functional, organism-based
Parameters: dose or concentration left out as unconfirmed
Screen size: about 69,000 compounds; about 950 (1.4%) showed an effect of 50% or more. This is one part of a sample in which strong results are shown more often than they occur.
Mark label 0 for Percent Effect values under -10%, and label 1 for everything at or above.

| molecule | groupLabel |
| --- | --- |
| Cc1cnc(CNC(=O)[C@@]23CCO[C@@H]2CCN(c2ncccn2)C3)cn1 | label 1 |
| Cc1cc(NC2CCCN(Cc3ccc(F)cc3)C2)n2nc(C)cc2n1 (configuration not stated) | label 1 |
| CCOC(=O)CSc1nnc([C@@H](N)C(C)C)o1.Cl | label 1 |
| O=C(NCCc1ccccn1)[C@@]12CCO[C@@H]1CCN(c1ncccn1)C2 | label 1 |
| Cc1cccc(CNC(CN2CCN(C)CC2)c2ccccc2)c1 (configuration not stated) | label 1 |
| CN(C)CCOCC1CN(Cc2ccoc2)Cc2nnn(C)c21.O=C(O)C(F)(F)F.O=C(O)C(F)(F)F (configuration not stated) | label 0 |
| Cc1ccc(CNCC(C)Oc2ccccn2)cc1.Cl (configuration not stated) | label 0 |
| COc1cc(CN(CCCN(C)C)Cc2ccccn2)cc2c1OCO2.O=C(O)CC(O)(CC(=O)O)C(=O)O | label 0 |
| C[C@H]1CN(c2ccccn2)C[C@@]12CCN(Cc1cccnc1)C2=O.O=C(O)C(F)(F)F.O=C(O)C(F)(F)F | label 1 |
| Cc1ccc(CN(CCCn2ccnc2)Cc2cnn(C)c2)s1.O=C(O)CC(O)(CC(=O)O)C(=O)O | label 0 |
| CCc1ccc(CN2CCc3ncnc(-c4cccnc4)c3CC2)o1.O=C(O)C(F)(F)F.O=C(O)C(F)(F)F | label 0 |
| O=C(CCNc1ncccn1)NCc1csc(Br)c1 | label 1 |
| OC(CN(Cc1ccccc1)Cc1ccncc1)c1cccs1 (configuration not stated) | label 1 |
| Cc1ccc(CNC(c2ccccc2)c2nccn2C)cc1.Cl (configuration not stated) | label 1 |
| COc1cc(CNC(C)Cn2cccn2)cc(OC)c1 (configuration not stated) | label 0 |
| Cc1noc(C)c1CN1CCO[C@H]2CN(Cc3cncn3C)C[C@H]21.O=C(O)C(F)(F)F.O=C(O)C(F)(F)F | label 0 |
| CCOCC1CC2(CCN(C(=O)c3ncccn3)CC2)CO1 (configuration not stated) | label 0 |

---

Tested on: Mycobacterium tuberculosis
Experiment: Cornell M. t heat shock assay; further: in the data most compounds retested in dose-response had high values
Assay type: functional, organism-based
Set-up: dose or concentration left out as unconfirmed
Screen size: about 69,000 compounds; about 950 (1.4%) showed an effect of 50% or more. This is one part of a sample in which strong results are shown more often than they occur.
Item-by-item account of Percent Effect
measurementType: Percent Effect (%)

| molecule | measurementType | quantityUnit | number |
| --- | --- | --- | --- |
| c1cnc(N2CCCC(c3cncc(-n4ccnc4)n3)C2)nc1 (stereo not given) | Percent Effect | % | -40.48 |
| Cc1cnn(CC2CCCN2CC(=O)Nc2nncs2)c1 (stereo not given) | Percent Effect | % | -6.011 |
| CC(C)Nc1nc(N2CCCC2)nc2c1CN(S(C)(=O)=O)CC2 | Percent Effect | % | 11 |
| O=C1C[C@H]2CC[C@@H](CN1)N2C(=O)CCc1ccccc1 | Percent Effect | % | 16.33 |
| Cc1nc(NC(C)C)nc2c1CN(Cc1cccs1)CC2 | Percent Effect | % | 99.87 |
| CC(=O)Nc1nc(CN2CCCC2Cn2cc(C)cn2)cs1 (stereo not given) | Percent Effect | % | 69.78 |
| CO[C@H]1CCN(S(=O)(=O)c2cccnc2)[C@@H]2CN(CC3CC3)C[C@H]12.O=C(O)C(F)(F)F.O=C(O)C(F)(F)F | Percent Effect | % | 2.331 |
| CN(C)CCNC(=O)c1cc(-c2cnc(N3CCCC3)nc2)cn1C.O=C(O)C(F)(F)F | Percent Effect | % | -14.58 |
| O=C1c2c(O)cc(O)cc2O[C@@H](c2ccc(O)cc2)[C@@H]1O | Percent Effect | % | 53.66 |
| CN(C)C(=O)COC1COC2(CCN(CC3CCOCC3)CC2)C1.O=C(O)C(F)(F)F (stereo not given) | Percent Effect | % | -2.67 |
| CCC(C)N1CCc2nc(N3CCCC3)nc(NC(C)C)c2C1 (stereo not given) | Percent Effect | % | -2.093 |
| Cc1ccc2nc(C3CCCN3Cc3nnc(C)s3)[nH]c2c1 (stereo not given) | Percent Effect | % | -8.638 |
| COc1c(C2CCCN2CC(=O)Nc2cc(C)no2)c(C)nn1C (stereo not given) | Percent Effect | % | 8.972 |
| CCn1c(CN(C)C)nnc1C1CCN(c2ccnc(C)c2)CC1 | Percent Effect | % | 105.5 |
| CC(=O)N1CCC(c2nc3ccc(NC4CCC4)cn3n2)CC1.O=C(O)C(F)(F)F | Percent Effect | % | 21.7 |
| Cc1cnn(CC2CCCN2CC(=O)Nc2nccs2)c1 (stereo not given) | Percent Effect | % | 102.3 |
| O=C(O)C(F)(F)F.O=C(O)C(F)(F)F.O=C(c1cccnc1)N1Cc2nccn2CC(COc2cccnc2)C1 (stereo not given) | Percent Effect | % | -22.14 |
| O=C(NC1CCC1)[C@H]1C[C@@H]2CN(CC3CC3)C[C@H]1O2.O=C(O)C(F)(F)F | Percent Effect | % | 18.28 |
| CC(=O)Nc1nc(CN2CCCC2Cn2cccn2)cs1 (stereo not given) | Percent Effect | % | -5.465 |
| CCn1nc(CC(C)C)cc1C(=O)NCCn1cccc1 | Percent Effect | % | 49.17 |
| COCCNC(=O)C[C@@H]1COC[C@H]2CN(CC3CCOCC3)C[C@@H]12.O=C(O)C(F)(F)F | Percent Effect | % | -14.59 |
| Cc1nc(CN2CCc3nc(NC(C)C)nc(C)c3C2)cs1 | Percent Effect | % | 99.63 |
| O=C(CN1CCCC1Cn1cncn1)Nc1nccs1 (stereo not given) | Percent Effect | % | 4.576 |
| Cc1cc(N2CCC(c3nnc(CN(C)C)n3C3CC3)CC2)ccn1 | Percent Effect | % | -0.4086 |
| COc1cc(C2CC(=O)c3c(O)cc(O)cc3O2)ccc1O (stereo not given) | Percent Effect | % | 5.655 |

---

// Percent Effect lookup, one value per entry
Tested on: Mycobacterium tuberculosis
Test: Cornell M. t heat shock assay; further: in the data most compounds retested in dose-response had high values
Assay type: functional, organism-based
Design: dose or concentration left out as unconfirmed
The campaign covered roughly 69,000 compounds. About 950 (1.4%) showed an effect of 50% or more. For the sample, strong results were picked, then their nearest neighbours and some compounds at random.

| compound | testTarget | Percent Effect [%] |
| --- | --- | --- |
| Cc1nnc([C@]23COC[C@H]2CN(S(=O)(=O)c2cccnc2)C3)o1.O=C(O)C(F)(F)F | Mycobacterium tuberculosis | 48.22 |
| CC(C)Cc1cc(C(=O)NC(C)(C)CN2CCCCCC2)on1 | Mycobacterium tuberculosis | 72.52 |
| O=C(NCC1CCOC1)Nc1ccc(OCC(F)(F)F)nc1 (configuration not stated) | Mycobacterium tuberculosis | 3.959 |
| CC(c1cccs1)N(C)Cc1cnc(-c2ccccn2)nc1 (configuration not stated) | Mycobacterium tuberculosis | 106.1 |
| CN(C)c1nc(N)nc(CN2CCCC(c3ccccc3)CC2)n1 (configuration not stated) | Mycobacterium tuberculosis | -13.13 |
| CC(C)Cc1cc(C(=O)NCC2CCCN(Cc3ccco3)C2)on1 (configuration not stated) | Mycobacterium tuberculosis | 16.01 |
| Cc1cnn(CCNCc2csc(COc3ccccc3)n2)c1 | Mycobacterium tuberculosis | 103.7 |
| CCN(CC)c1ccc(NC(=O)NCC2CCOC2)cn1 (configuration not stated) | Mycobacterium tuberculosis | 3.627 |
| Cc1occc1C(=O)NCC(=O)NCCOc1ccc2c(c1)CCC2 | Mycobacterium tuberculosis | 50.55 |
| CN(C)c1nc(N)nc(CN2CCCC2c2cccs2)n1 (configuration not stated) | Mycobacterium tuberculosis | 97.97 |
| Cc1cnn(CCCNCc2csc(COc3ccccc3)n2)c1 | Mycobacterium tuberculosis | 15.28 |
| CN(C)c1nc(N)nc(CN2CCCC2c2ccsc2)n1 (configuration not stated) | Mycobacterium tuberculosis | 64.16 |

---

System: Mycobacterium tuberculosis
Test: Cornell M. t heat shock assay; further: in the data most compounds retested in dose-response had high values
Type: functional, organism-based
Design: dose or concentration left out as unconfirmed
Hit rate of the full screen: of about 69,000 compounds, about 950 (1.4%) showed an effect of 50% or more. Shown is part of a subset that was picked to be rich in strong results.
Values of Percent Effect strictly less than -10% map to 1.0, and values of at least -10% map to 0.0.

| compound | groupLabel |
| --- | --- |
| CCOc1cc(CN(C)CC(=O)O)ccc1OC(F)F.Cl | 1.0 |
| O=C(O)C(F)(F)F.c1csc(CN2Cc3nccn3CC(Cn3cncn3)C2)c1 (stereo not given) | 1.0 |
| CCn1ncnc1CN(C/C=C/c1ccccc1)CCOC | 1.0 |
| Cc1cc(N2CCN(Cc3ccnn3C)CC2)cc(C2CCCN2)n1.Cl (stereo not given) | 1.0 |
| CCCc1nc(N2CCCCCC2)c2c(n1)c(C)nn2CC | 0.0 |

These entries and their values trace back to ChEMBL document CHEMBL3988442.
